The measurements presented in this section are drawn from ChEMBL document CHEMBL4043101.

Lab note: pKi readings collected with UniProtKB P35462 for the following molecules.
Sequence (P35462 whole entry): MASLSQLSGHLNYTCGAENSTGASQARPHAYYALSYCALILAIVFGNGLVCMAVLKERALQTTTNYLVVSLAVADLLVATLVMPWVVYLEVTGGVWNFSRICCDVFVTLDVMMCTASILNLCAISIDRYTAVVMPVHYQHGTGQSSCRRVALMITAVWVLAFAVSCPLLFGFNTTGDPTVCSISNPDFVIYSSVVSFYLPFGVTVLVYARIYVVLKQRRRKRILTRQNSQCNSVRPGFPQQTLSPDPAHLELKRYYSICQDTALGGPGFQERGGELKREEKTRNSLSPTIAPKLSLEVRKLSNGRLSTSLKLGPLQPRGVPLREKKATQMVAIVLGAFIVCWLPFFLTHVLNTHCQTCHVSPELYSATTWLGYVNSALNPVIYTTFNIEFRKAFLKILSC
pKi: −log10 of the molar value.
measuredAttribute: pKi

• O=C(NCCN1CCC(O)(c2ccc(Cl)cc2)CC1)NCCN1C(=O)C=CC1=O = 6.16

a. O=C(CCCN1CCC(O)(c2ccc(Cl)cc2)CC1)c1ccc(OCCSSCCO)cc1
b. COc1cc(CCN2CCC(O)(c3ccc(Cl)cc3)CC2)ccc1OCCSSCCN
Exam item: Compare a and b and name the one whose reported pKi is smaller. In your reply, give the label of the chosen option.
Marked response: b

====

Organism: Homo sapiens
Assay: Selectivity index, ratio of Ki for human D2short receptor expressed in CHO cell membranes to Ki for human D2short receptor L2.64C mutant expressed in HEK293T cell membranes
Type: cell-based
measuredAttribute: Ratio Ki
In your answer, state the number alone without any accompanying words.

Reference set (4 entries):
* COc1cc(CCN2CCC(O)(c3ccc(Cl)cc3)CC2)ccc1OCCSSCCN | 2.7
* O=C(CCCN1CCC(O)(c2ccc(Cl)cc2)CC1)c1ccc(OCCSSCCO)cc1 | 0.22
* O=C(NCCN1CCC(O)(c2ccc(Cl)cc2)CC1)NCCN1C(=O)C=CC1=O | 1.7
* [N-]=[N+]=NCCSSCCn1cc(C(=O)CCCN2CCC(O)(c3ccc(Cl)cc3)CC2)nn1 | 0.44

Let's switch to this molecule now.
Exam item: Using the record for "COc1cc(CCN2CCC(O)(c3ccc(Cl)cc3)CC2)ccc1OCCCSSCCN" , report its Ratio Ki.
Marked response: 1.1

====

Test system: D(2) dopamine receptor (Homo sapiens), P14416 [L94C]
Sequence (P14416 whole entry L94C): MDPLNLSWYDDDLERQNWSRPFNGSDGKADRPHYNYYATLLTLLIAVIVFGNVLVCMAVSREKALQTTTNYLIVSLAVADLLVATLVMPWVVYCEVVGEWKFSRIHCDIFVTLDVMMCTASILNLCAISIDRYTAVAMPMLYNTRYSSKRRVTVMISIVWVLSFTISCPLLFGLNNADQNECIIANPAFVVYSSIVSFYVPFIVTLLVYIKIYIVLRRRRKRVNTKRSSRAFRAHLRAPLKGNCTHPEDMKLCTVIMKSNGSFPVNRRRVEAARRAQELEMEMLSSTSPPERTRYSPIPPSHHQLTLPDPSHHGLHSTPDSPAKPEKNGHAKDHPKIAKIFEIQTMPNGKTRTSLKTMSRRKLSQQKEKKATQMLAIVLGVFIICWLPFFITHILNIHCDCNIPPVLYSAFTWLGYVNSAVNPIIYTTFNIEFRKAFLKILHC
Assay: Irreversible inhibition of [3H]spiperone binding to human D2short receptor L2.64C mutant expressed in HEK293T cell membranes at 5 uM incubated for 120 mins followed by compound wash out by radioligand depletion assay
Conditions: HEK-293T
measuredAttribute: inhibition

• [N-]=[N+]=NCCSSCCn1cc(C(=O)CCCN2CCC(O)(c3ccc(Cl)cc3)CC2)nn1 = 70 to 95%
• COc1cc(CCN2CCC(O)(c3ccc(Cl)cc3)CC2)ccc1OCCCSSCCN = 60 to 85%
• COc1cc(CCN2CCC(O)(c3ccc(Cl)cc3)CC2)ccc1OCCSSCCN = 60 to 85%

Let's switch to this compound now.
Exam item: Which measured inhibition value corresponds to "O=C(NCCN1CCC(O)(c2ccc(Cl)cc2)CC1)NCCN1C(=O)C=CC1=O" ?
Marked response: 60 to 85%

====

Molecular target: D(2) dopamine receptor (Homo sapiens, UniProt P14416)
Sequence (P14416 whole entry): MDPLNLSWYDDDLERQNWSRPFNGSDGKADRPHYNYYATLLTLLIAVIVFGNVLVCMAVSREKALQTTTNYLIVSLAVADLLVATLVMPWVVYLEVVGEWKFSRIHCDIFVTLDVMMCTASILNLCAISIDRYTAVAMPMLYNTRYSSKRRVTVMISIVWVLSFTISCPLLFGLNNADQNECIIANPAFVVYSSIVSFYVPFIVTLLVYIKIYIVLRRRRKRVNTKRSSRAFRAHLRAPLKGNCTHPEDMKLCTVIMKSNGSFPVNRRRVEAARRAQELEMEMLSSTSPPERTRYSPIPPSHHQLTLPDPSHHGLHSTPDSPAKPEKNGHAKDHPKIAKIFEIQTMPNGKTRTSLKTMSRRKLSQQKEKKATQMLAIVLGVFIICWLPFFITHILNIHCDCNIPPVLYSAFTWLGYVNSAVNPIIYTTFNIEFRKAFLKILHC
Experiment: Displacement of [3H]spiperone from human D2long receptor expressed in CHO cell membranes by radioligand binding assay
measuredAttribute: Ki (nM)

* [N-]=[N+]=NCCSSCCn1cc(C(=O)CCCN2CCC(O)(c3ccc(Cl)cc3)CC2)nn1 | 260

A. COc1cc(CCN2CCC(O)(c3ccc(Cl)cc3)CC2)ccc1OCCSSCCN
B. O=C(CCCN1CCC(O)(c2ccc(Cl)cc2)CC1)c1ccc(OCCSSCCO)cc1
C. COc1cc(CCN2CCC(O)(c3ccc(Cl)cc3)CC2)ccc1OCCCSSCCN
D. O=C(NCCN1CCC(O)(c2ccc(Cl)cc2)CC1)NCCN1C(=O)C=CC1=O
Exam item: Arrange items by their Ki values in increasing order. Note for the reader: the ranking is given by listing the labels in the order requested.
Marked response: B, C, A, D
(B: 240 nM, C: 1000 nM, A: 1500 nM, D: 2200 nM)

====

Molecular target: UniProt:P14416
Test: Displacement of [3H]spiperone from human D2short receptor expressed in CHO cell membranes by radioligand binding assay
pKi: −log10 of the molar value.
measuredAttribute: pKi

* COc1cc(CCN2CCC(O)(c3ccc(Cl)cc3)CC2)ccc1OCCSSCCN | 5.82
* O=C(NCCN1CCC(O)(c2ccc(Cl)cc2)CC1)NCCN1C(=O)C=CC1=O | 5.82

A. O=C(CCCN1CCC(O)(c2ccc(Cl)cc2)CC1)c1ccc(OCCSSCCO)cc1
B. COc1cc(CCN2CCC(O)(c3ccc(Cl)cc3)CC2)ccc1OCCCSSCCN
C. [N-]=[N+]=NCCSSCCn1cc(C(=O)CCCN2CCC(O)(c3ccc(Cl)cc3)CC2)nn1
Exam item: Please produce an ascending ranking of these compounds based on pKi. Quick reminder: the answer is the labels in the order asked.
Marked response: B, C, A

====

# Ratio Ki listing for each entry below
Species on record: Homo sapiens
Assay: Selectivity index, ratio of Ki for human dopamine D4.4 receptor expressed in CHO cell membranes to Ki for human D2short receptor expressed in CHO cell membranes
Type: cell-based
Number only, no unit.

- O=C(CCCN1CCC(O)(c2ccc(Cl)cc2)CC1)c1ccc(OCCSSCCO)cc1: 13
- COc1cc(CCN2CCC(O)(c3ccc(Cl)cc3)CC2)ccc1OCCCSSCCN: 1.6
- COc1cc(CCN2CCC(O)(c3ccc(Cl)cc3)CC2)ccc1OCCSSCCN: 0.73

Moving on to another compound below.
Exam item: Can you share its Ratio Ki? I mean this compound: "[N-]=[N+]=NCCSSCCn1cc(C(=O)CCCN2CCC(O)(c3ccc(Cl)cc3)CC2)nn1"
Marked response: 23
